Biological target: HLA-A*02:01 molecule
Assay: flow cytometry, T2 cells
Label y when -log Kd value < -5; otherwise n.

Solved cases below.
BINDER	CAT
ALPAPHLTL (modifications not checked) [peptide of SEQ ID NO: 18]	y
IQYSSFHNL (modifications not checked) [peptide of SEQ ID NO: 21]	y
ALQFLIPRL (modifications not checked) [peptide of SEQ ID NO: 22]	y

Dear colleague, could you confirm whether -log Kd value of YQLSPPITW (modifications not checked) [peptide of SEQ ID NO: 32] falls below -5? Thanks. n
